Molecular target: T1, cynomolgus monkey DLL4 extracellular domain (cynomolgus monkey)
T1 construct: extracellular domain; also called cynoDLL4 ECD; Cyno DLL4
Assay: SPR (Biacore)
Assignment: determine reported Kd for the given binders.
Give just the numeric value; nM need not be written.

Short answer for 15D6 rat anti-DLL4 monoclonal antibody (antibody, rat IgG2a, V domains shown, rat IgG2a/K hybridoma mAb; also called MC13-15D6.1G7) VH: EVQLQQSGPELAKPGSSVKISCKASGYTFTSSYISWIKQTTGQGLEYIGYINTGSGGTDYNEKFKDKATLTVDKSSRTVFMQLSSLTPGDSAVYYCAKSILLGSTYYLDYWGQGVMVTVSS VL: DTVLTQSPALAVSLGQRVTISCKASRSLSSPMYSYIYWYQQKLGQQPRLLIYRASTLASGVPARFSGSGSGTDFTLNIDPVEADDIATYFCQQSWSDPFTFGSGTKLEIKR : Kd was 14.9

Short answer for 14A11 rat anti-DLL4 monoclonal antibody (antibody, rat IgG2a, V domains shown, rat IgG2a/K hybridoma mAb; also called MC13-14A11.3A4) VH: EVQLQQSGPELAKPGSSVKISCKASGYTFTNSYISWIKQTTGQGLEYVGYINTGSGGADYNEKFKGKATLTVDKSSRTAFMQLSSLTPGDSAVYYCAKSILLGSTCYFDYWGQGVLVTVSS VL: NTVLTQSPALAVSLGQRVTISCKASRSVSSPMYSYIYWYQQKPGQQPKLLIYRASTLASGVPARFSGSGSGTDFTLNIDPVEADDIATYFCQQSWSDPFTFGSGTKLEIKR : Kd was 11.6

Short answer for 14G1 rat anti-DLL4 monoclonal antibody (antibody, rat IgG2a, V domains shown, rat IgG2a/K hybridoma mAb; also called MC13-14G1.1B4) VH: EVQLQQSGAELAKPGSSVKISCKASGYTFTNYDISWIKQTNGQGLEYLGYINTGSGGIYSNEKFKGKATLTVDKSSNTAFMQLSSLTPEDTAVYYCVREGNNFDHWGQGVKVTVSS VL: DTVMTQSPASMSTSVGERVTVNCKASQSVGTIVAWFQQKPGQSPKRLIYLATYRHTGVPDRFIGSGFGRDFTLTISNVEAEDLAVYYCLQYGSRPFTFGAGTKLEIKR : Kd was 10.5

This collection of values is drawn from patent US20110217237A1.
